Reference source for all entries: PubChem BioAssay (NCATS)

Test system: CASKI
measurement notes: Primary qHTS to identify gynecologic anti-cancer compounds using libraries of approved drugs and bioactive compounds (AID 1345084); also: nearly all actives have a fitted effect of over 55% in size
setup conditions: Gynecologic cancer cell panel viability, ATPlite luminescence, 48 h; series mostly up to 57.5 µM
Results filed as inconclusive are left out. Active and inactive are the calls of the source. Calls follow the shape of the dose curve; as a rule, active = well fitted cell-killing curve with a large enough effect; inconclusive = small, poorly fitted or top-dose-only effect, or effect the other way; inactive = flat fitted curve, though single readings scatter.
Outcome codes: active, inactive

INSERT INTO assay_data (compound, study_system, class_label) VALUES
  ('O=C(NN1CCCC1)NS(=O)(=O)c1ccc(Cl)cc1', 'CASKI', 'inactive'),
  ('CCCCN(CCN(CCCC)C(=O)N1CCOCC1)C(=O)N1CCOCC1', 'CASKI', 'inactive'),
  ('CC(C)=CCC/C(C)=C/CC/C(C)=C/C(=O)OCC(=O)[C@@]1(O)CC[C@H]2[C@@H]3CCC4=CC(=O)C=C[C@]4(C)[C@H]3[C@@H](O)C[C@@]21C', 'CASKI', 'inactive'),
  ('CCCCCCCCCCCCCC[N+](C)(C)C', 'CASKI', 'active'),
  ('COC(=O)C1=C(C)NC(COC(N)=O)=C(C(=O)OC(C)C)C1c1cccc(Cl)c1Cl (centres undefined)', 'CASKI', 'inactive'),
  ('CCCCCCCCCCCCCCCCCCN(C)C', 'CASKI', 'inactive'),
  ('Cc1cnc(NS(=O)(=O)c2ccc(N)cc2)nc1', 'CASKI', 'inactive'),
  ('CC(=O)OCC[N+](C)(C)C', 'CASKI', 'inactive'),
  ('CCOc1ccccc1OCC1CNCCO1 (centres undefined)', 'CASKI', 'inactive'),
  ('CC1(C)S[C@@H]2[C@H](NC(=O)C(c3ccccc3)S(=O)(=O)O)C(=O)N2[C@H]1C(=O)O (some centres undefined)', 'CASKI', 'inactive'),
  ('CCCCCOc1ccccc1/C(=C\SC)n1ccnc1', 'CASKI', 'inactive'),
  ('CC(C)C(=O)OCc1cccc(OC(=O)[C@@H]2N3C(=O)[C@@H](NC(=O)Cc4ccccc4)[C@H]3SC2(C)C)c1', 'CASKI', 'inactive'),
  ('CCOC(=O)Oc1ccc(CCNC(=O)[C@H](CCSC)NC(C)=O)cc1OC(=O)OCC', 'CASKI', 'inactive'),
  ('Cc1coc2ccccc2c1=O', 'CASKI', 'inactive'),
  ('Clc1ccc2c(c1)Nc1ccccc1S2', 'CASKI', 'inactive'),
  ('C[N+]1(CC2COC(c3ccccc3)(c3ccccc3)O2)CCCCC1 (centres undefined)', 'CASKI', 'inactive'),
  ('COC(=O)c1cc(Cl)c(NC(C)=O)cc1OC', 'CASKI', 'inactive'),
  ('O=[N+]([O-])c1cncn1CCN1CCOCC1', 'CASKI', 'inactive'),
  ('CC(NN)c1ccccc1 (centres undefined)', 'CASKI', 'inactive'),
  ('CC(C)C[C@@H]1[C@H](c2ccccc2)OC(=O)N1CCCN1CCCCCC1', 'CASKI', 'inactive'),
  ('O=C(Oc1ccccc1)c1ccccc1O', 'CASKI', 'inactive'),
  ('CCCCOC(=O)CCCCCCCCC(=O)OCCCC', 'CASKI', 'inactive'),
  ('CCN1CCN(c2cc(-c3ccc(F)cc3)c3c(n2)CCCCCC3)CC1', 'CASKI', 'inactive'),
  ('Cc1cc(O)c(C)c(C)c1O', 'CASKI', 'inactive');
